readout-kind: melting point

Briefly, melting point measured for O=C(NO)c1ccc2c(c1)CN(C(=O)c1ccc3ccccc3n1)C2 : 162 to 166 °C

Continuing:
molecule CCOC(=O)C=CC=Cc1ccc(-n2ccnc2)cc1 , melting point observed: 126 to 127 °C

Quick note, melting point for O=C(N[C@H](Cc1ccc(C(F)(F)F)cc1)[C@@H](O)c1cccc2ccccc12)c1ccc(F)cc1 (racemic) landed at 194 to 195 °C

Record CSc1ccc2c3c(cccc13)C(=O)N2CCCC#N . Reported melting point: 120 to 122 °C

Reported melting point ( COC(C)CC(=O)NC1CCC(CCN2CCN(c3nccc4c3OCC4)CC2)CC1 (racemic) ) = 168 °C

###

Entries and their melting point values follow.

The molecule listed as Cc1ccc(Oc2ccc(S(=O)(=O)C[C@H]([C@H]3COC(C)(C)O3)N(O)C=O)cc2)cc1 has a reported melting point of 156 to 158 °C

Memo: O=C(NNS(=O)(=O)c1c(Cl)cccc1Cl)c1ccc2oc3ccccc3c2c1 , reported melting point: 202 to 203 °C

What the record says about CCOC(=O)c1ccccc1S(N)(=O)=O : melting point is 122 to 124 °C

Notebook: O=C(O)Cc1cc(=O)n(Cc2ccc(Cl)cc2)c2ccccc12 , melting point read as 208 to 209 °C

Next:
Entry Clc1cccc(Nc2nc3nonc3nc2Nc2cccc(Cl)c2)c1 ; melting point = 238 °C

###

readout-kind: melting point

Recorded results for 3 compounds are shown here.
Just so you know, measured melting point for Cc1[nH]c(C(=O)NCC2CCCCC2)c(C)c1-c1nc2ccc(C(=O)c3ccccc3)cc2[nH]1 came out at 254 to 255 °C

Per the record, CC(=O)c1ccc(N2CCN(C)CC2)cc1 has melting point of 97 to 99 °C

// melting point value for CC(Oc1ccc2nc(NC(=O)NCCN3CCN(Cc4ccccc4)CC3)sc2c1)c1c(Cl)ccc(F)c1Cl (stereo not given) : 125 to 139 °C

More entries:
Reported melting point for COc1ccccc1SCC1SCCN1C(=S)CC(C)=O (stereo not given) was 62 to 64 °C

The compound identified as COC(=O)c1ccc(S(C)(=O)=O)c(C2=NOCC2)c1C registered its melting point at 104 to 106 °C

###

Readings of melting point for the listed molecules

Recorded results for 8 molecules are shown here.
Measured melting point, COc1ccc(CNc2cc3c(Nc4ccc(Cl)c(Cl)c4)ncnc3cn2)cc1 : 209 to 211 °C

Lab note: measured melting point of CCOC(=O)CC(=CNc1ncccc1C)C(=O)OCC was 62 °C

Note to self: melting point recorded for CC1CCCN(c2cc3nc(C(C)(C)C)sc3cc2N)C1 (centres undefined) was 108 to 112 °C

Reported melting point of CC1(C)OCCN1CCNc1ccc(NCCN2CCOC2(C)C)c2c1C(=O)c1c(O)ccc(O)c1C2=O : 255 to 256 °C

molecule CCCNC(=O)CCn1ccc(=O)c(OCc2ccccc2)c1C , melting point observed: 146 to 147 °C

The reported melting point of the molecule Cc1c(-c2ccc([N+](=O)[O-])cc2)sc2c1c(=O)n(-c1ccccc1)c(=O)n2Cc1c(F)cccc1F was 280 to 282 °C

The molecule listed as N#CC1CN1C(=O)NC(=O)c1cccc([N+](=O)[O-])c1 (centres undefined) has a reported melting point of 156 to 158 °C

Memo: COc1cc(C(Cn2ccnc2)Sc2ccc(C(=O)O)cc2)cc(OC)c1OC (centres undefined) , reported melting point: 94 to 97 °C

Now for a further molecule.
melting point in this record for CNc1nc(-c2ccccc2)c(-c2nc3ccccc3c(=O)n2-c2ccc(C)cc2)s1 : 192 to 193 °C

###

melting point listing for selected compounds.

Memo: O=C(O)C(O)c1cccc(COc2ccccc2Cl)c1COc1ccccc1Cl (stereo not given) , reported melting point: 101 to 103 °C

Record CC(C)n1nc(-c2sc(NC(=O)N3CCOCC3)nc2-c2ccccc2)ccc1=O , field melting point: 231 to 232 °C

Notebook: O=c1c(-c2ccccc2)coc2ccccc12 , melting point read as 132 to 134 °C

// sample O=C(Nc1n[nH]c(=S)s1)NC(Cc1ccccc1)C(=O)NCc1cccc2ccccc12 (stereo not given) , its melting point was 234 to 235 °C

What the record says about C=CCCCCCCOc1ccc(C(CC(C(=O)OCC)C(=O)OCC)NC(C)=O)cc1 (stereo not given) : melting point is 50 to 53 °C

###

readout-kind: melting point

Form: compound = CCN(CC)c1ccc(-c2nnc(Nc3ccc(Br)c(Cl)c3)s2)cc1 ; melting point = 232 to 233 °C

According to the records, this compound O=C(O)c1cc(NCc2c(F)c(F)c(C(F)(F)F)c(F)c2F)ccc1O displays melting point of 179 °C

// COc1cc2c(c(Cl)c1Cl)C(=O)C(C)(CC1CCCC1)C2 (configuration not stated) : melting point value = 75 to 77 °C

New cases:
Kindly note the recorded melting point for Cc1ccc2nc([C@@H](C)NC(=O)OC(C)(C)C)sc2c1 , which is 101 to 104 °C

The reported value for CCN(C(=S)Nc1cc(Cl)ccc1C)c1c(C)nn(C)c1C in terms of melting point is 144 to 145 °C

GET /value?item= Clc1ccc(COc2ccccc2C(=NOCc2ccccc2)n2ccnc2)cc1 &field=melting point returns 94 to 95.5 °C

###

readout-kind: melting point

Briefly, melting point measured for CCc1c(Cc2[nH]c(C(=O)OCc3ccccc3)c(C)c2CCCO)[nH]c(Cc2[nH]c(C(=O)OCc3ccccc3)c(C)c2CCCO)c1CC : 172 to 173 °C

Value of melting point reported for the compound Cc1ccc(NC(=O)c2cc(Cl)ccc2NCC2CCN(C3CCOCC3)CC2)nc1 is 166 to 168 °C

Record summary for Cc1nc(=O)[nH]c2ccc(N(C)C)cc12 : reported melting point = 278 to 281 °C

Measured melting point of CNC(=O)C1=CC(C)(C(F)(F)F)Oc2ccc([N+](=O)[O-])cc21 (centres undefined) : 196 to 197 °C

Form: compound = O=C1c2cc(F)cc(F)c2-n2c1nc1ccccc1c2=O ; melting point = 287 to 290 °C

Looking up CC1CC(=Cc2cc(C(C)(C)C)c(O)c(C(C)(C)C)c2)C(=O)N1C(N)=O (centres undefined) , I see its melting point listed as 195 to 196 °C

COc1ccc(C(=O)NNC(C)=N)cc1 has a reported melting point of 179 to 181 °C

melting point recorded for this compound, COc1cc(C(=O)N2Cc3ccc(C(=O)NCc4ccc(OC(F)(F)F)cc4)n3Cc3ccccc32)ccc1-c1ccccc1C , is 145 to 149 °C

// field: melting point; key: O=[N+]([O-])c1ccc(Oc2c(Cl)cc(C(F)(F)F)cc2Cl)cc1CO ; value = 143 °C

###

readout-kind: melting point (°C)

Some entries whose results are on file:
Lab book: melting point of O=C(c1ccc(F)cc1)C1CCN(CCCn2c(=O)[nH]c3ccc(Cl)cc32)CC1 noted as 157

Summary for this molecule, OCCC(O)OCn1ccc2c(Cl)ncnc21 (stereo not given) : melting point is 114

# molecule CCOC(=O)c1c(C)nn(-c2c(Cl)cc(Cl)cc2Cl)c1N ; its melting point = 150

[1] CC(C)(O)C(C(=O)O)c1ccc(Cl)cc1 (stereo not given)
[2] COc1cccc2c(N3CCNCC3)cc(C(F)(F)F)nc12
[3] CC1Cc2nc(-c3ccccc3)[nH]c(=O)c2CC1S(=O)(=O)c1ccccc1 (stereo not given)
// ranking: key=melting point, reverse=True Write out the labels following the order that was asked for.
3, 2, 1

###

readout-kind: melting point

Worked set:
The reported melting point of the compound CC(=O)Oc1c(Cc2ccccc2)ccc2ccccc12 was 67 to 69 °C

Sure, the documented melting point for Cc1cccc(-c2cc(C(=O)O)n(C)n2)c1 is 150 to 153 °C

Reported melting point for O=C(Oc1ccc2c(c1)OC=C(C(=O)N1CCN(C(c3ccc(F)cc3)c3ccc(F)cc3)CC1)O2)c1cccnc1 was 142 °C

Per the record, O=C1c2ccccc2-c2c1c1ccccc1c(=O)n2C1CC1 has melting point of 206 to 208 °C

Next:
// melting point lookup, compound = COc1nsc(OCCC#CI)c1C#N , result: 71 to 73 °C

###

readout-kind: melting point

Examples with answers:
melting point reading for Cc1nc2c(OCc3ccccc3)cc(C(=O)N(C)C)cc2n1COCC[Si](C)(C)C : 118 to 120 °C

In plain terms, Cc1nnc2ncc(-c3ccccc3F)nn12 has a documented melting point of 200 to 204 °C

Looking up Brc1ccc2[nH]cc(C3=CCNCC3)c2c1 , I found its melting point recorded as 202 to 204 °C

Measured melting point of Cc1ccc(-c2ccc3c(c2)C=C(C(CN(C)C2CCOCC2)Oc2ccccc2)CCO3)cc1 (stereo not given) : 135 to 136 °C

Next:
The measured melting point associated with CC(C)Cn1c(CCCCNC(=O)OC(C)(C)C)nc2c(N)nc3ccccc3c21 reads 165 to 167 °C
